Recorded values, source patent US20260167721A1.

The reader will find reported koff values listed item by item below.
- assay_system: T1, recombinant human CD3 epsilon/delta heterodimer (human, UniProt P07766 23-126; P04234 22-105)
- T1 construct: Recombinant protein in solution (200-50 nM) in the Octet assay; also called hCD3 E/D; human CD3E/D
- T1 sequence (P07766 23-126, stated change not applied, chain 1 of 2): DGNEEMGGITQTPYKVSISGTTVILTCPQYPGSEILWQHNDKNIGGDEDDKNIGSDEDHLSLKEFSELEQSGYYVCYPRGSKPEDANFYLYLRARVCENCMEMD
- T1 sequence (P04234 22-105, stated change not applied, chain 2 of 2): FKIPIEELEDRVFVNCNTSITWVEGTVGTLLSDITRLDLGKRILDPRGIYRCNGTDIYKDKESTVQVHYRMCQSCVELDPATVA
- assay_procedure: Octet BLI, mAb on FAB2G sensor, hCD3 E/D 200-50 nM; R^2 0.99
API: value field is a number in s⁻¹; no unit string.

The following binders have reported results that may help.
>>> experimental_value("ABL-CD3-25 (antibody, V domains shown, Chimeric hybridoma mAb: human V, CH1, upper hinge; mouse middle hinge, CH2, CH3) VH: EVHLVESGGGLVKPGGSLRLSCAASGFTFSSYSMNWVRQAPGKGLEWVSSISSSSTYIYYADSVKGRFTISRDNAKNSLYLQMNSLRAEDTAVYYCAREPRTLGMDYWGQGILVTVSS VL: NFMLTQPHSVSESPGKTVTISCTRSSGSIASNYVQWYQQRPGSSPTTVIYEDNHRPSGVPDRFSGSIDSSSNSASLTISGLKTEDEADYFCQSFDSSNRVFGGGTKLTVL")
0.000933
>>> experimental_value("ABL-CD3-26 (antibody, V domains shown, Chimeric hybridoma mAb: human V, CH1, upper hinge; mouse middle hinge, CH2, CH3) VH: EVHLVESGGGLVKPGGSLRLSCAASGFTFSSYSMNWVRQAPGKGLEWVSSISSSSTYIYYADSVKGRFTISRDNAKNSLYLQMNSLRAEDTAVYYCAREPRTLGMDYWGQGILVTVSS VL: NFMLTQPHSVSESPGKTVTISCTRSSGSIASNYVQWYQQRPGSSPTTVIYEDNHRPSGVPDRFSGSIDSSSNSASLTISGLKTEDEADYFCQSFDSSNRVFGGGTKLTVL")
0.00104

Let's switch to this binder now.
For the binder shown here, ABL-CD3-47 (antibody, V domains shown, Chimeric hybridoma mAb: human V, CH1, upper hinge; mouse middle hinge, CH2, CH3) VH: EVQLVESGGGLVQPGGSLRLSCAASGFTFSRYSMNWVRQAPGKGLEWVSYISRSSTTIYYADSVKGRFTISRDNAKNSLYLQMNSLRDEDAAVYYCARERWELLYFDYWGQGTLVTVSS VL: NFMLTQPHSVSESPGKTVTISCTRSSGSIASKYVQWYQQRPGSSPTTVIYEDNQRPSGVPDRFSGSIDSSSNSASLTISGLKTEDEADYYCQSYYSNNRVFGGGTKLTVL , give the reported koff. 0.00291
